Data provenance is patent US20240116985A1.

pEC50 for assorted binders
target-or-system: T1, full-length beta-Catenin (Uniprot ID P35222) (Homo sapiens (Human), UniProt P35222 2-781)
T1 construct: also called B-Catenin; bCat
T1 sequence: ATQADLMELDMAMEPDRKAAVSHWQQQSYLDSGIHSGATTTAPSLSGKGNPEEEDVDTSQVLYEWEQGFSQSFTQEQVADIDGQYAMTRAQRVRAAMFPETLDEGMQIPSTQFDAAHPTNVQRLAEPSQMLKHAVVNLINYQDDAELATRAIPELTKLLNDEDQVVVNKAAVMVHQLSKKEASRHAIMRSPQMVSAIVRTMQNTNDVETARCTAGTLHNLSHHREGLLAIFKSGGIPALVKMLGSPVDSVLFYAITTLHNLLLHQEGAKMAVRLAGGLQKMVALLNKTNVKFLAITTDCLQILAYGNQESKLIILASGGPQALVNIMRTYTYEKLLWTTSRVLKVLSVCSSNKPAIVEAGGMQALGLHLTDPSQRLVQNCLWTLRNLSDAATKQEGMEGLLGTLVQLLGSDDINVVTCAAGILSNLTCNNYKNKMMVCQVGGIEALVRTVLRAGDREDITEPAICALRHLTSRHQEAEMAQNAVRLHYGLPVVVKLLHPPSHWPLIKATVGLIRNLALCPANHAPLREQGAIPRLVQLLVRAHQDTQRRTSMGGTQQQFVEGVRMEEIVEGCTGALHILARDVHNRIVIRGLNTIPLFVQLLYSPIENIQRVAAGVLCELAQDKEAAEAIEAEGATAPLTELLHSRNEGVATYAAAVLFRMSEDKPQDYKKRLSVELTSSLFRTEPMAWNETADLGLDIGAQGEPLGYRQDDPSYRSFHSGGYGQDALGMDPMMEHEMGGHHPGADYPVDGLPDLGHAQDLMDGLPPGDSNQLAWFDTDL
test-protocol: Alphascreen competition; biotin-TCF4(10-53) probe with full-length beta-catenin
Experimental: Equal volume of the titrated peptide was added to the plate and incubated for 15 minutes at 20° C. Then 4 uL of donor and 4 uL acceptor beads at 10 ug/mL were added to the plate, for a 16 uL reaction pool and protected from light for 60 minutes at 20° C. prior to read. Reads were performed on a CLARIOstar plate reader (BMG Labtech) in duplicate, and data were fitted to a 1:1 binding model with hill slope using an in-house script. All provided concentrations are final concentrations.
pEC50: −log10 of the molar value. Starred links: 1 amine or outer side, 2 acyl side, 3 side chain; linkers in the order of their positions; H or OH if unused. Positions of bridges follow the written chain, without caps; N, C: chain ends. Non-standard residues stand in square brackets, D forms with d. Primed or numbered codes have the meaning given here. B5(10) = 2-amino-2-(pent-4-en-1-yl)hept-6-enoic acid, bis(4-pentenyl)glycine, stitching residue bearing both staples, C=CCCCC(CCCC=C)(N[*:1])C(=O)[*:2]; SeN″ = (S)-5-(((allyloxy)carbonyl)(methyl)amino)-2-amino-2-methylpentanoic acid (stapling residue), C=CCOC(=O)N(C)CCC[C@](C)(N[*:1])C(=O)[*:2]; B5(4) = 2,2-bis(4-pentenyl)glycine = 2-amino-2-(pent-4-en-1-yl)hept-6-enoic acid (stitching residue), C=CCCCC(CCCC=C)(N[*:1])C(=O)[*:2]; PyrS(3) = (S)-1-((allyloxy)carbonyl)-3-aminopyrrolidine-3-carboxylic acid, stapling residue, C=CCOC(=O)N1CC[C@@](N[*:1])(C(=O)[*:2])C1; PyrS″ = (S)-1-((allyloxy)carbonyl)-3-aminopyrrolidine-3-carboxylic acid (stapling residue), C=CCOC(=O)N1CC[C@@](N[*:1])(C(=O)[*:2])C1; PyrS = (S)-1-((allyloxy)carbonyl)-3-aminopyrrolidine-3-carboxylic acid, C=CCOC(=O)N1CC[C@@](N[*:1])(C(=O)[*:2])C1; Phe(3-OMe) = COc1cccc(C[C@H](N)C(=O)O)c1; 2Nal = N[C@@H](Cc1ccc2ccccc2c1)C(=O)O; Ala(cPent) = N[C@@H](CC1CCCC1)C(=O)O; hTyr = N[C@@H](CCc1ccc(O)cc1)C(=O)O; αAllylPro = C=CC[C@@]1(C(=O)O)CCCN1; hPhe = N[C@@H](CCc1ccccc1)C(=O)O; R8 = C=CCCCCCC[C@@](C)(N)C(=O)O; S8 = C=CCCCCCC[C@](C)(N)C(=O)O
measured-parameter: pEC50

binder	measured-parameter	result-modifier	obs-value
XDAXDNAAFVXFWQ (not fully specified; as printed: Ac-PL3-Asp-Ala-B5-Asp-Asn-Ala-Ala-Phe-Val-S8-Phe-Trp-Gln-NH2; staples PL3(1)-B5(4) and B5(4)-S8(11), Stitched (two-staple) peptide composition) [I-124]	pEC50	=	5.89
Ac-FDA[R8]DDAA[Phe(3-OMe)]V[PyrS″]FWQ-NH2 (staple 4-11; not fully specified; printed as Ac-Phe-Asp-Ala-R8-Asp-Asp-Ala-Ala-3OMeF-Val-PyrS-Phe-Trp-Gln-NH2, Stapled peptide composition) [I-103]	pEC50	=	5.31
Ac-FDA[R8]DFAAFV[PyrS″]FWQ-NH2 (staple 4-11, Stapled peptide composition; same description as I-99, separate later-eluting HPLC peak (staple isomer)) [I-100]	pEC50	=	5.03
Ac-[αAllylPro]DA[B5(4)]DEAAFV[SeN″]FWQ-NH2 (staple 1-4, 4-11, Stitched (two-staple) peptide composition; same description as I-130, separate later-eluting HPLC peak (staple isomer)) [I-131]	pEC50	=	6.40
Ac-FDA[R8]DFAAFV[PyrS]FWQ-NH2 (staple 4-11; not fully specified; printed as Ac-Phe-Asp-Ala-R8-Asp-Phe-Ala-Ala-Phe-Val-PyrS-Phe-Trp-Gln-NH2, Stapled peptide composition; same description as I-100, separate earlier-eluting HPLC peak (staple isomer)) [I-99]	pEC50	≤	5.00
Ac-FDA[R8]DDAAFV[PyrS″][Phe(3-OMe)]WQ-NH2 (staple 4-11; not fully specified; printed as Ac-Phe-Asp-Ala-R8-Asp-Asp-Ala-Ala-Phe-Val-PyrS-3OMeF-Trp-Gln-NH2, Stapled peptide composition) [I-102]	pEC50	≤	5.00
Ac-FDA[R8]D[2Nal]AAFV[PyrS″]FWQ-NH2 (staple 4-11; also: earlier-eluting HPLC peak (staple isomer), Stapled peptide composition) [I-115]	pEC50	=	5.32
Ac-FDA[R8]DDAAFV[PyrS″][Ala(cPent)]WQ-NH2 (staple 4-11, Stapled peptide composition; same description as I-94, separate earlier-eluting HPLC peak (staple isomer)) [I-93]	pEC50	≤	5.00
Ac-FDA[R8]D[hPhe]AAFV[PyrS″]FWQ-NH2 (staple 4-11; not fully specified; printed as Ac-Phe-Asp-Ala-R8-Asp-hPhe-Ala-Ala-Phe-Val-PyrS-Phe-Trp-Gln-NH2, Stapled peptide composition; same description as I-97, separate later-eluting HPLC peak (staple isomer)) [I-98]	pEC50	≤	5.00
Ac-[αAllylPro]DA[B5(10)]DEAAFV[S8]FW-NH2 (staple 1-4, 4-11, Stitched (two-staple) peptide composition) [I-128]	pEC50	=	6.04
Ac-FDA[R8]DDAA[hTyr]V[PyrS(3)]FWQ-NH2 (staple 4-11, Stapled peptide composition; same description as I-120, separate earlier-eluting HPLC peak (staple isomer)) [I-119]	pEC50	=	5.31
